Readings of Imax for the listed molecules
- target_entity: PLK1 kinase (Homo sapiens)
- Construct: purchased Carnabio (Carna Biosciences) 05-157
- Sequence (P53350 whole entry): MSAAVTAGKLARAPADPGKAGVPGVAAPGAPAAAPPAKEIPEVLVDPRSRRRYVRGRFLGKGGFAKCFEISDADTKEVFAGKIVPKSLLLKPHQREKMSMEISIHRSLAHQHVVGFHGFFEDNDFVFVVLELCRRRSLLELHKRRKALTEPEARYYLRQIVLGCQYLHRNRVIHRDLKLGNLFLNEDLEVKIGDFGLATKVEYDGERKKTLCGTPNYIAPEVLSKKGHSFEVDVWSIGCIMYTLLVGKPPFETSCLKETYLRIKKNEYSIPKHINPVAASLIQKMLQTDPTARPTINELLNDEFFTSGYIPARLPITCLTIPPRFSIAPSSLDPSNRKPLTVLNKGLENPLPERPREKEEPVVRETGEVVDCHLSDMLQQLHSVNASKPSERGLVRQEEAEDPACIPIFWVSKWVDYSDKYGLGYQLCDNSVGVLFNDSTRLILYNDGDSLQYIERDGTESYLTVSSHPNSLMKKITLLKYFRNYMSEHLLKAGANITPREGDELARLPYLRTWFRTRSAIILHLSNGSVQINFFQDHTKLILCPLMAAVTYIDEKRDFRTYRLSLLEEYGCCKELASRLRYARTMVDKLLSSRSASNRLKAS
- protocol_details: Inhibitory activity on PLK1 kinase
- Type: biochemical
- condition_notes: maximum effect caused by the compound at the test concentration
Provide the reading as a plain figure in %.

Example cases with answers are listed next.
> print(dat)
                                   molecule  assay.value
1  C[C@@H](Oc1cc(-n2cnc3ccc(CN4CCN(C)CC4)cc32)sc1C(N)=O)c1ccccc1C(F)(F)F [GSK461364, reference compound]       101.08
2  CN1CCN(c2ccc(OC(F)(F)F)c(Nc3ncc4ccc5c(C(N)=O)cn(CCO)c5c4n3)c2)CC1        99.15
3  CN1CCN(c2ccc(OC(F)(F)F)c(Nc3ncc4ccc5c(C(=O)NOCCO)nn(CCO)c5c4n3)c2)CC1        99.54
4  CN1CCN(c2ccc(OC(F)(F)F)c(Nc3ncc4ccc5c(C(N)=O)cn(C)c5c4n3)c2)CC1        99.99

Task: Recall and state the measured Imax for CN1CCN(c2ccc(OC(F)(F)F)c(Nc3ncc4ccc5c(C(N)=O)nn(CC(F)(F)F)c5c4n3)c2)CC1 .
Output: 100.08

Task: Could you please provide reported Imax for Cn1nc(C(N)=O)c2c1-c1nc(Nc3cc(N4CCN(CCO)CC4)ccc3OC(F)(F)F)ncc1CC2 ? Thanks!
Output: 99.29

Task: Supply measured Imax of CN1CCN(c2ccc(OC(F)(F)F)c(Nc3ncc4ccc5c(C(=O)NO)nn(CCO)c5c4n3)c2)CC1 in your reply.
Output: 99.97

====

- protocol_details: Permeability and efflux transporter substrate evaluation in Caco-2 cells
- Assay type: in vitro ADME
- Design: dose or concentration left out as unconfirmed
- condition_notes: human, pH 7.4; Caco-2, apical to basolateral, 120 min, pH 7.40
Below is a list of entries, each paired with its recorded Papp A→B at 120 min value.
Number only, in ×10⁻⁶ cm/s; omit the unit.

> print(dat)
                                   molecule  output.unit  assay.value
1  CN1CCN(c2ccc(OC(F)(F)F)c(Nc3ncc4c(n3)-c3c(c(C(N)=O)nn3CCC#N)CC4)c2)CC1 [Compound 4]   ×10⁻⁶ cm/s         1.16
2  CN1CCN(c2ccc(OC(F)(F)F)c(Nc3ncc4c(n3)-c3c(c(C(N)=O)nn3CCO)CC4)c2)CC1 [Onvansertib, reference compound]   ×10⁻⁶ cm/s        0.299
3  Cn1nc(C(N)=O)c2ccc3cnc(Nc4cc(N5CCN(CCO)CC5)ccc4OC(F)(F)F)nc3c21 [Compound 16]   ×10⁻⁶ cm/s        0.917
4  CN1CCN(c2ccc(OC(F)(F)F)c(Nc3ncc4ccc5c(C(N)=O)nn(CCO)c5c4n3)c2)CC1 [Compound 1]   ×10⁻⁶ cm/s        0.965
5  Cn1nc(C(N)=O)c2c1-c1nc(Nc3cc(N4CCN(CCO)CC4)ccc3OC(F)(F)F)ncc1CC2 [Compound 20]   ×10⁻⁶ cm/s          1.3

Now let's try a different one.
Task: Provide measured Papp A→B at 120 min value, entry: CN1CCN(c2ccc(OC(F)(F)F)c(Nc3ncc4ccc5c(C(N)=O)nn(CCF)c5c4n3)c2)CC1 [Compound 18]
Output: 2.03
